Measured values drawn from PubChem BioAssay AID1963834 for this set.

System: 873145-292-R-J1-PDC complex spheroid viability;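 note: luminescence signal used as surrogate for viable cell content; spheroids exposed to compounds for 7 days before viability readout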
Test: Anticancer human tumor 873145-292-R-J1-PDC patient-derived renal clear cell carcinoma cell line growth inhibition [POLQ]
Conditions: second compound 0.316 µM; first compound 1 µM; active compounds read low
Description: Multicellular complex tumor spheroid response to Polymerase (POL) inhibitors (novobiocin, ART-558, RP6685) in combination with a variety of drugs and investigational agents in selected tumor cell lines The POL inhibitors (novobiocin, ART-558, and RP6685) were evaluated both individually and in combination with standard of care and investigational anticancer small molecules within a complex spheroid model of solid tumors. . […]
With a cut-off of 90%, any viability, T/C strictly below it is called True; any viability, T/C meeting it or above is called False.

Molecule | Group
COc1cc2cc(C(=O)CCC(=O)O)sc2cc1OC + Cc1cccc(N(C)C(=O)C2C(O)CCN2c2nc(C)cc(C(F)(F)F)c2C#N)c1 | False
COc1cccc2c1C(=O)c1c(O)c3c(c(O)c1C2=O)CC(O)(C(=O)CO)CC3OC1CC(N)C(O)C(C)O1 (stereo unspecified) + COC1C(OC(N)=O)C(O)C(Oc2ccc3c(O)c(NC(=O)c4ccc(O)c(CC=C(C)C)c4)c(=O)oc3c2C)OC1(C)C | True
Nc1ccn(C2OC(CO)C(O)C2(F)F)c(=O)n1 (stereo unspecified) + Cc1cccc(N(C)C(=O)C2C(O)CCN2c2nc(C)cc(C(F)(F)F)c2C#N)c1 | True
CCc1c2c(nc3ccc(O)cc13)-c1cc3c(c(=O)n1C2)COC(=O)[C@]3(O)CC + COC1C(OC(N)=O)C(O)C(Oc2ccc3c(O)c(NC(=O)c4ccc(O)c(CC=C(C)C)c4)c(=O)oc3c2C)OC1(C)C | True
CCCS(=O)(=O)Nc1ccc(F)c(C(=O)c2c[nH]c3ncc(-c4ccc(Cl)cc4)cc23)c1F + Cc1cccc(N(C)C(=O)C2C(O)CCN2c2nc(C)cc(C(F)(F)F)c2C#N)c1 | False
O=C(Nc1ccc(O)c(NS(=O)(=O)c2ccc(F)cc2)c1)c1ccc(-c2ccccc2)cc1 + COC1C(OC(N)=O)C(O)C(Oc2ccc3c(O)c(NC(=O)c4ccc(O)c(CC=C(C)C)c4)c(=O)oc3c2C)OC1(C)C | False
COc1cccc2c1C(=O)c1c(O)c3c(c(O)c1C2=O)CC(O)(C(=O)CO)CC3OC1CC(N)C(O)C(C)O1 (stereo unspecified) + Cc1cccc(N(C)C(=O)C2C(O)CCN2c2nc(C)cc(C(F)(F)F)c2C#N)c1 | True
COc1ccc([C@@H](O)c2cc(-c3ncnc4cc(N5CCOCC5)ccc34)c(F)cc2Cl)nn1 + Nc1ccc(C#CCN(C(=O)Cc2ncc(C(F)(F)F)cc2C(F)(F)F)c2ccc(F)cc2)nn1 | True
CC1COCCN1c1cc(C2(S(C)(=N)=O)CC2)nc(-c2ccnc3[nH]ccc23)n1 (stereo unspecified) + Cc1cccc(N(C)C(=O)C2C(O)CCN2c2nc(C)cc(C(F)(F)F)c2C#N)c1 | True
